assay: Relative binding to rat A1 and human A3 adenosine receptors (ratio of IC50)
reported_endpoint: Ratio

Example results:
1) Oc1nc2ccc(Cl)cc2c2nc(-c3ccco3)nn12; 15
2) CC(C)(C)C(=O)Nc1nc2ccc(Cl)cc2c2nc(-c3ccco3)nn12; 0.84
3) O=C(Nc1nc2ccc(Cl)cc2c2nc(-c3ccco3)nn12)c1cccc(I)c1; 8.4

[I] O=C(Nc1nc2ccc(Cl)cc2c2nc(-c3ccco3)nn12)c1ccccc1
[II] CC(C)(C)OC(=O)NCCCC(=O)Nc1nc2ccc(Cl)cc2c2nc(-c3ccco3)nn12
Identify the item whose Ratio is the smaller number: I or II Reply briefly: the label of your chosen item.
II
(II: 2.8, I: 220)

Data credit: ChEMBL document CHEMBL1129441
